Every entry's value here was drawn from the supplement of paper PMC10567573.

B1: SMG5 (parent)
chain: FVSIAQSEQESLLQQAQAQFRMAQ

Variants of: B1
Assay: protein stability index of a GFP-peptide fusion (GPS, HEK-293T) (PSI 1-6); higher = more stable;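 also: lentivirally expressed fusions sorted by FACS into six bins by GFP to DsRed ratio, PSI derived from sequencing read proportions per bin multiplied by bin number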
Settings: c terminus: a fixed tail appended
Record form. Attribute: protein stability index. Fill in for each entry.
Numbers only.

Study these solved cases before continuing.
E8R : 1.42
A16M : 2.2

From here, focus on the item given below.
Field request: protein stability index | item: "S3V" 1.77
